experiment-summary: Compound was tested for binding affinity towards Opioid receptor delta 1 in guinea pig brain homogenates using [3H][p-Cl-Phe]-DPDPE as radioligand
pKi: −log10 of the molar value.
reported-metric: pKi

{"compound": "C[C@H](c1ccccc1)[C@H](NC(=O)CNC(=O)[C@@H](C)NC(=O)[C@@H](N)Cc1ccc(O)cc1)C(=O)NNC(=O)[C@@H](NC(=O)CNC(=O)[C@@H](C)NC(=O)[C@@H](N)Cc1ccc(O)cc1)[C@H](C)c1ccccc1", "recorded-measurement": 6.96}
{"compound": "C[C@@H](NC(=O)[C@@H](N)Cc1ccc(O)cc1)C(=O)NCC(=O)N[C@@H](Cc1cccc2ccccc12)C(=O)NNC(=O)[C@H](Cc1cccc2ccccc12)NC(=O)CNC(=O)[C@@H](C)NC(=O)[C@@H](N)Cc1ccc(O)cc1 [Biphalin Analogue]", "recorded-measurement": 8.19}
{"compound": "C[C@@H](NC(=O)[C@@H](N)Cc1ccc(O)cc1)C(=O)NCC(=O)N[C@H](C(=O)NNC(=O)[C@@H](NC(=O)CNC(=O)[C@@H](C)NC(=O)[C@@H](N)Cc1ccc(O)cc1)[C@@H](C)c1ccccc1)[C@@H](C)c1ccccc1", "recorded-measurement": 7.96}
{"compound": "C[C@@H](NC(=O)[C@@H](N)Cc1ccc(O)cc1)C(=O)NCC(=O)N[C@@H](Cc1c(F)c(F)c(F)c(F)c1F)C(=O)NNC(=O)[C@H](Cc1c(F)c(F)c(F)c(F)c1F)NC(=O)CNC(=O)[C@@H](C)NC(=O)[C@@H](N)Cc1ccc(O)cc1 [Biphalin Analogue]", "recorded-measurement": 8.11}
{"compound": "C[C@@H](NC(=O)[C@@H](N)Cc1ccc(O)cc1)C(=O)NCC(=O)N[C@@H](Cc1ccc2ccccc2c1)C(=O)NNC(=O)[C@H](Cc1ccc2ccccc2c1)NC(=O)CNC(=O)[C@@H](C)NC(=O)[C@@H](N)Cc1ccc(O)cc1 [Biphalin Analogue]", "recorded-measurement": 8.13}
